The entries below come with measured EC50 in nM, HGF-stimulated c-Met phosphorylation in PC-3 cells, Average of Two Trials values attached.
biological target: recombinant human HGF (R&D Systems, Catalog No. 294-HGN-025) (human, UniProt P14210 32-728); experiment: cell-based or functional assay
Sequence (P14210 32-728 limits assumed): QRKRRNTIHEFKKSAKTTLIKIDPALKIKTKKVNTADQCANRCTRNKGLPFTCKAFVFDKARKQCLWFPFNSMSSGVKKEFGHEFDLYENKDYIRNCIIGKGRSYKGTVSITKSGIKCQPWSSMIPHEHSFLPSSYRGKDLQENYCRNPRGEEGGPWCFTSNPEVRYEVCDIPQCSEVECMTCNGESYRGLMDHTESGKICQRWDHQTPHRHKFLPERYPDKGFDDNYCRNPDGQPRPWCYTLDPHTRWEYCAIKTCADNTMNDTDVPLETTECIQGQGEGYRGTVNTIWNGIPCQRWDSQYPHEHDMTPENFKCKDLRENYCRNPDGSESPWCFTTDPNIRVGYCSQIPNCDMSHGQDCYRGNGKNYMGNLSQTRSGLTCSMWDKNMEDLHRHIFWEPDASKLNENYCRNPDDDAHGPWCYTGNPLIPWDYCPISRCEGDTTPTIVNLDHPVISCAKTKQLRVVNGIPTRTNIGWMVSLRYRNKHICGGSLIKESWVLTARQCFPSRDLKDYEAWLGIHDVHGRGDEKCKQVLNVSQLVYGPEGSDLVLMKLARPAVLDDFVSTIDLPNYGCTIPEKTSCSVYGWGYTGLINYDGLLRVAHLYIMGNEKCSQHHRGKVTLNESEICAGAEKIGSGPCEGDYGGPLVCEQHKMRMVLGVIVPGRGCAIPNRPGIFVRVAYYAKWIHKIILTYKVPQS
readout.type: EC50 in nM, HGF-stimulated c-Met phosphorylation in PC-3 cells, Average of Two Trials (nM)

| binder | output.unit | observed.measurement |
| --- | --- | --- |
| anti-hHGF monoclonal antibody 2F8 (antibody, mouse IgG1, kappa, V domains shown) VH: QVQLKQSGAELVRPGTSVKMSCKASGYTFTTYYIHWVNQRPGQGLEWIGKIGPGSGSTYYNEMFKDKATLTVDTSSSTAYMQLSSLTSDDSAVYFCARRGLGRGFDYWGQGTTLTVSS VL: DIVLTQSPASLAVSLGQRATISCKASQSVDYDGNSYINWYQQKPGQPPKVLIYVASNLESGIPARFSGSGSGTDFTLNIHPVEEEDAATYYCQQSIEDPPTFGAGTKLELKR | nM | 1.39 |
| anti-hHGF monoclonal antibody 3D11 (antibody, mouse IgG1, kappa, V domains shown) VH: QVQLKESGPGLVAPSQSLSITCTVSGFSLTSYSLHWVRQPPGKGLEWLGVIWAGGNTNYNSSLMSRLTIRKDNSKSQVFLKMNSLQTDDTAMYYCARERFAYWGQGTLVTVSA VL: QIVLTQSPAIMSAYPGEKVTMTCSASSSVSYMHWYQQKSGTSPKRWIYDTSKLASGVPARFSGSGSGTSYSLTISSMEAEDAATYYCQQWSSNPLTFGAGTKLELKR | nM | 2.28 |
| anti-hHGF monoclonal antibody 1D3 (antibody, mouse IgG1, kappa, V domains shown) VH: EVQLVESGGGLVQPGGSLKLSCAASGFTFSDYYMSWVRQTPEKRLEWVAYISSGGGSTYYPDSVKGRFTISRDNAKNTLYLQMSSLKSEDTAIYYCVRQGDGYYGDYAMDYWGQGTSVIVSS VL: DIQMTQSPASLSVSVGETVTITCRTSENIYSNLAWYQQKQGKSPQLLIYAATNLADGVPSRFSGSGSGTQFSLRINSLQSEDFGRYYCQHFWGTPYTFGGGTKLEIKR | nM | 0.984 |
| anti-hHGF monoclonal antibody 3A12 (antibody, mouse IgG1, kappa, V domains shown) VH: EVQLVESGGGLVQPGGSLKISCAASGFTFSNYFMSWVRQTPEKRLEWVAYISSGGGSTYYPDSVKGRFTISRDNAKNTLYLQMNSLKSEDTAMYYCVRQGDGYYGDYAMDYWGQGTSVTVSS VL: DIQMTQSPASLSVSVGETVTITCRASENIYINLAWYQQKQGKSPQLLVHAATKLADGVPSRFSGSGSGTQYSLKINSLQSEDFGSYYCQHFWGTPYTFGGGTKLEIKR | nM | 2 |
| anti-hHGF monoclonal antibody 1A3 (antibody, mouse IgG1, kappa, V domains shown) VH: EVQLVESGGGLVQPGGSLKLSCAASEFTFSNYYMSWVRQTPEKRLQWVAYISPGGGSSYYPASVKGRFTISRDNAKNTLYLQMSSLKSEDTAMYYCARQGDGYYGDYAMDYWGQGTSVTVSS VL: DIQMTQSPASLSVSVGETVTITCRASENIYSNLAWYQQKQGKSPQLLVYAATNLADGVPSRFSGSGSGTQFSLKINSLQSEDFGTYYCQHFWGTPYTFGGGTKLEIKR | nM | 0.684 |
| anti-hHGF monoclonal antibody 3B6 (antibody, mouse IgG1, kappa, V domains shown) VH: QVQLQQSGAELVRPGSSVKISCKASGYVFSSYWMNWVKQRPGQGLEWIGQIYPGDGDSNYNGNFKGKATLTADKSSSTAYMQLSSLTSEDSAVYFCASQLGLRENYFDYWGQGTTLTVSS VL: DIKMTQSPSSMYASLGERVTITCKASQDIKSYLSWFQQKPGKSPKTLIYRVNRLVDGVPSRFSGSGSGQDSSLTITSLENEDMGIYYCLQYDEFPFTFGGGTKLEIKR | nM | 1.01 |
| anti-hHGF monoclonal antibody 1F3 (antibody, mouse IgG1, kappa, V domains shown) VH: EVQLVESGGGLVQSGGSLKLSCAASGFTFSNYFMSWVRQTPEKRLEWVAYISSGGGSTYYPDSVKGRFTISRDNAKNTLYLQMSSLKSEDTAMYYCVRQGDGYYGDYAMDYWGQGTSVTVSS VL: DIQMTQSPASLSVSVGETVTITCRASENIYSNLAWYQQKQGKSPQLLVYDATHLPDGVPSRFSGSGSGTQFSLKINSLQSEDFGSYYCQHFWGTPYTFGGGTRLEIKR | nM | 1.19 |
